- Test system: Saccharomyces cerevisiae
- Assay Details: transcriptional activation domain activity (GFP:mCherry ratio, weighted mean of sorted bins, harmonized to initial dataset scale) (arbitrary fluorescence ratio units); higher = stronger transcriptional activation
- Experimental Setup: beta-estradiol 1 µM; induction time 4 h
Quantity Kind: transcriptional activation domain activity

{"Monomer Sequence": "MQIQALAFPSYCQNTLFMPCTSIVCLDFFFLLHIFPLVPRSLDVFFLFLLVHL", "Target Desc": "Saccharomyces cerevisiae", "Observed Measurement": 76400}
{"Monomer Sequence": "MCVLHHLSHTLCFALFCYVIEAFRFTSYLLLLPFWRFYVLVVIPLFIHISYVF", "Target Desc": "Saccharomyces cerevisiae", "Observed Measurement": 52500}
{"Monomer Sequence": "MHSSGWLWANISLLFPRLFFLTFFSYLLCDLAFRFDRLVCFLWLLFFQWSFII", "Target Desc": "Saccharomyces cerevisiae", "Observed Measurement": 52200}
{"Monomer Sequence": "YYVPLLASPTFWAVTLPLYCVFVGIQVFFVFLEAAGLSLHLVVIFWWLGWWAG", "Target Desc": "Saccharomyces cerevisiae", "Observed Measurement": 53000}
{"Monomer Sequence": "ADEEPTSSLYRSNAKEVSRITTGSCSEIKNKLAGMQLGHNKQVSICSSGLCVP", "Target Desc": "Saccharomyces cerevisiae", "Observed Measurement": 72000}
{"Monomer Sequence": "AILLFIELASMGGFTWHLLSGLFFGDVCLIYMDLDDTLFFLFVLVALFSQSFV", "Target Desc": "Saccharomyces cerevisiae", "Observed Measurement": 46700}
{"Monomer Sequence": "MWLLFYARACLSLLWFTSARVLFFSSFLTFSFLIIWLLGSFDIFRILVLFSFF", "Target Desc": "Saccharomyces cerevisiae", "Observed Measurement": 87100}
{"Monomer Sequence": "TIITNRGTIPNGLGRDIWTLQPDMITSFAYWFYHMEYAYFLNLVLLKASILFF", "Target Desc": "Saccharomyces cerevisiae", "Observed Measurement": 57800}
{"Monomer Sequence": "ISNHQVYADWWYAWCLTYFMGTHKDIFIVLKKSLKWLPIVGWGMQFFNFIFLA", "Target Desc": "Saccharomyces cerevisiae", "Observed Measurement": 48400}
{"Monomer Sequence": "AAADAEVDELEDGTADADGAKPKKRKRGGDADGKPKSARKDAPAAAKKKGGAA", "Target Desc": "Saccharomyces cerevisiae", "Observed Measurement": 36500}
{"Monomer Sequence": "EEEPATKKQKTDDAAATTNGDAKPKGKPGRPKKAESEKKSPAKKRDPKKAATA", "Target Desc": "Saccharomyces cerevisiae", "Observed Measurement": 33700}
{"Monomer Sequence": "HLLIKILATRFFLEAKKTTYAPLNDQGTLMPSVEWTIMAQLWRLARNKWFEAT", "Target Desc": "Saccharomyces cerevisiae", "Observed Measurement": 51000}
{"Monomer Sequence": "ANPEPTDDDFHIFGGRHVFFTTDDPWLIFLGFILQHLDRLLNRMLFWWCVEWV", "Target Desc": "Saccharomyces cerevisiae", "Observed Measurement": 56900}
{"Monomer Sequence": "MIGVVCALYLFFFPSFFLLFFFSTLLDDDTLIIYKFFLLWESWFVAFILFFYL", "Target Desc": "Saccharomyces cerevisiae", "Observed Measurement": 24900}
{"Monomer Sequence": "VRNNSENASHNNETGPIETELAQTISNEFWTAYNLGWEELMSQPDYKYLFDTQ", "Target Desc": "Saccharomyces cerevisiae", "Observed Measurement": 117000}
{"Monomer Sequence": "AYTDEDDAHQIRRKQLSMVLRGMPSVFDSLTHARVYLELIFRQMEHYLYVAAT", "Target Desc": "Saccharomyces cerevisiae", "Observed Measurement": 42200}
{"Monomer Sequence": "EDSEPEPQPQKSQSRRRQSRGRGRRGGDSDNESVARSDVSASGGRRNRQRKQK", "Target Desc": "Saccharomyces cerevisiae", "Observed Measurement": 22200}
{"Monomer Sequence": "VRVLNQLKLLLYCTLLSPVYAFKPYRNLYYTFLRKNLLGVVGGYNCAGHNLAI", "Target Desc": "Saccharomyces cerevisiae", "Observed Measurement": 55500}
{"Monomer Sequence": "LYYTAPFNLQPYISYVGCGLVCLVLFFNGFWIFFPGQFSVANLFTSYFAPVFF", "Target Desc": "Saccharomyces cerevisiae", "Observed Measurement": 65000}
{"Monomer Sequence": "ASSTAAASAASSAAAAKGGNNNAGKGAAAAKGGAAAAKGGAAAGGAAAAKGGA", "Target Desc": "Saccharomyces cerevisiae", "Observed Measurement": 24400}
{"Monomer Sequence": "MADALAENTAKLQLDEETGEMVSKGELKKRMAKRAKKAAAAKAKAEVPATTSA", "Target Desc": "Saccharomyces cerevisiae", "Observed Measurement": 20400}
{"Monomer Sequence": "MTVDHDFNSEDILFPIESMSSIQYVENNNPNNINNDVIPYSLDIKNTVLDSAD", "Target Desc": "Saccharomyces cerevisiae", "Observed Measurement": 76400}
{"Monomer Sequence": "VLGSEGSNLRCTRYLVVGGPPAMGREVQRFRECECTVMRMTVLIRGAVMWGCR", "Target Desc": "Saccharomyces cerevisiae", "Observed Measurement": 57500}
{"Monomer Sequence": "MFCLRSWIPVLFFLLRTNASPVYLILSISATYFLNRPCVYCSLLLFILVVALF", "Target Desc": "Saccharomyces cerevisiae", "Observed Measurement": 57600}
{"Monomer Sequence": "MLLLLIIRKVLILGKPFFINHLHILLYPDTVLSPFLLLSFPLTLPLSLLLLLL", "Target Desc": "Saccharomyces cerevisiae", "Observed Measurement": 106000}
{"Monomer Sequence": "MLMAWVIHAKCSAVPQCPPRPAVRSYIGRITLSLIIRARCILEMIVFPTFICW", "Target Desc": "Saccharomyces cerevisiae", "Observed Measurement": 55600}
{"Monomer Sequence": "PDGSAITGSAVTKRKQSKSRNGCITCKAKRLKCDETKPSCQQCAKRSVTCGGY", "Target Desc": "Saccharomyces cerevisiae", "Observed Measurement": 28100}
{"Monomer Sequence": "MHFFSFFFLCFYFYFLSSLLGSMDYTALYFPFFFCSNYRRCYMCFLVEPFFFL", "Target Desc": "Saccharomyces cerevisiae", "Observed Measurement": 78500}
{"Monomer Sequence": "SQQRLEVSAMYLFWHMDTVRGLCVRMPGTVMTRAHFFRLLTYYFAMLFLSAAL", "Target Desc": "Saccharomyces cerevisiae", "Observed Measurement": 57000}
{"Monomer Sequence": "HWRAFVTGGGSAFWLLAYGIFYWASRLSLDSFTSVILYLGYLVLLALMDFLVT", "Target Desc": "Saccharomyces cerevisiae", "Observed Measurement": 20300}
{"Monomer Sequence": "DQSEISRTTSRSDTPLRDEDGLDFWETLRSLATTNPNPPVEKSAENDGAKPQV", "Target Desc": "Saccharomyces cerevisiae", "Observed Measurement": 41100}
{"Monomer Sequence": "RSHAGRGRSRSREKHEHHRSHHHREKRRRESEIERRDSKRAASPKSKPSENIH", "Target Desc": "Saccharomyces cerevisiae", "Observed Measurement": 27100}
